MIC values for the compounds below.
System: Candida tropicalis
TEST_PROTOCOL: Antifungal activity against Candida tropicalis 156 after 24 hrs by broth microdilution method
Type: functional
MEASUREMENT_PARAMETERS: Candida tropicalis, 156, 24 h
Answer format: numeric, µM implied, no suffix.

A selection of reference data follows.
Cc1cc(NS(=O)(=O)c2ccc(NC(=O)c3cccc(Cl)c3)cc2)no1 ... 500
Cc1cc(NS(=O)(=O)c2ccc(/N=C/c3cccc(Cl)c3)cc2)no1 ... 500

API: the following record is the query input.
Give the reported MIC for this compound. `Cc1cc(NS(=O)(=O)c2ccc(NC(=O)c3cc(Cl)ccc3O)cc2)no1`
500
